Values were extracted from ChEMBL document CHEMBL1201862.

# Tested on: UACC-62
# test-protocol: NCI tumour cell line growth inhibition, 48 h
Active and inactive are the calls of the source. Cut-off read from the data, not from the text of the source: active = GI50 up to about 1.1 µM and inactive = higher.
measured-attribute: GI50

Noted GI50 for Nc1ccccc1CCN1CCN(CCCc2ccccc2)CC1 , tested on UACC-62: 84.3 µM (inactive)

Short answer on UACC-62 for COc1ccc(OC)c2c1C1CCC(=O)N1CN2C(C)=O (stereo not given) , GI50: > 100 µM (inactive)

Reported GI50 (UACC-62) for entry CN1C(=O)C(c2c[nH]c3ccccc23)N(C)C(=O)C1c1c[nH]c2ccccc12 (stereo not given) is > 100 µM (inactive)

// compound C/C(=N\NC(N)=S)c1ccc2c(c1)OCO2 , assay UACC-62, GI50 value: > 100 µM (inactive)

Lab entry: UACC-62 assay, compound COc1ccc2c3c1C(=O)CCCC3CO2 (stereo not given) , GI50 = > 100 µM (inactive)

Lab entry: UACC-62 assay, compound N#CCC(=O)c1cc(OCc2cc(OCc3ccc(Br)cc3)cc(OCc3ccc(Br)cc3)c2)cc(OCc2cc(OCc3ccc(Br)cc3)cc(OCc3ccc(Br)cc3)c2)c1 , GI50 = > 100 µM (inactive)

Item CCN(CC)c1ccc2cc(C(=O)Nc3ccc(C)cc3)c(=N)oc2c1 ; assay system UACC-62; GI50 reported as > 100 µM (inactive)

Item NCC(O)CNCC/C=C\C/C=C\C/C=C\C/C=C\C/C=C\C/C=C\CCCCC/C=C\CCNCC(O)CN (stereo not given) ; assay system UACC-62; GI50 reported as 1.79 µM (inactive)

Kindly note: UACC-62, O=C1[C@@H]2C(c3ccc(Cl)cc3Cl)=NO[C@@H]2C(=O)N1c1ccc(Cc2ccc(N3C(=O)[C@H]4C(c5ccc(Cl)cc5Cl)=NO[C@H]4C3=O)cc2)cc1 , GI50 value reported: 71.6 µM (inactive)

The compound O=C(CSc1nnc(Cc2ccccc2)o1)Nc1ccccc1 , when measured on UACC-62, yielded GI50 of > 100 µM (inactive)

Lab note: compound CNC1NC(=O)c2ccccc2N1Cc1ccc(F)cc1 (stereo not given) tested on UACC-62; recorded GI50 was > 100 µM (inactive)

So the reported GI50 for CCOP(=O)(OCC)OC1C=CC2CCC1C2 (stereo not given) , on UACC-62, turned out to be > 100 µM (inactive)

Here Cc1c(C)c2c(c(N)c1C#N)C(=O)N(CCN1CCNCC1)C2=O was tested on UACC-62, and its GI50 came to 23.2 µM (inactive)

Entry CCCCCCCCCCCCC1N=C(N)N2CCCC2=C1C(=O)OC (stereo not given) under UACC-62 had GI50 of 1.74 µM (inactive)

Tested system UACC-62; GI50 recorded for C[N+](C)(C)/C=N\c1cccc2nsnc12 was > 100 µM (inactive)

// GI50 (UACC-62) for Clc1ccc(NCc2nnc(CCCCCCCCc3nnc(CNc4ccc(Cl)cc4)o3)o2)cc1 = > 100 µM (inactive)

Sample COc1cc(/C=C2\N=C(c3ccccc3)N(c3nc4cc(C)c(C)cc4s3)C2=O)cc(OC)c1OC , system: UACC-62. Its GI50 is 33.3 µM (inactive)

The observed GI50 for COc1ccc(OC)c2cc(Cc3ccc(N(C)C)cc3)c(=O)c(Cc3ccc(N(C)C)cc3)cc12 when tested with UACC-62 stands at 59.4 µM (inactive)

So the reported GI50 for CC(=O)Oc1ccc2c(c1)[nH]c1c3ccc(OC(C)=O)cc3oc(=O)c21 , on UACC-62, turned out to be 28.1 µM (inactive)

// assay UACC-62, entry Cn1cc(NC(=O)c2cc(NC(=O)CCCCCCCCCC(=O)Nc3cc(C(=O)Nc4cc(C(=O)NCCC(=N)N)n(C)c4)n(C)c3)cn2C)cc1C(=O)NCCC(=N)N , GI50 value = 31.2 µM (inactive)
